- tgt: CFTR-mediated chloride transport in human intestinal epithelial enteroid cells (Homo sapiens, UniProt P13569)
- Sequence (P13569 with tags, fused parts or gaps DEL508-508): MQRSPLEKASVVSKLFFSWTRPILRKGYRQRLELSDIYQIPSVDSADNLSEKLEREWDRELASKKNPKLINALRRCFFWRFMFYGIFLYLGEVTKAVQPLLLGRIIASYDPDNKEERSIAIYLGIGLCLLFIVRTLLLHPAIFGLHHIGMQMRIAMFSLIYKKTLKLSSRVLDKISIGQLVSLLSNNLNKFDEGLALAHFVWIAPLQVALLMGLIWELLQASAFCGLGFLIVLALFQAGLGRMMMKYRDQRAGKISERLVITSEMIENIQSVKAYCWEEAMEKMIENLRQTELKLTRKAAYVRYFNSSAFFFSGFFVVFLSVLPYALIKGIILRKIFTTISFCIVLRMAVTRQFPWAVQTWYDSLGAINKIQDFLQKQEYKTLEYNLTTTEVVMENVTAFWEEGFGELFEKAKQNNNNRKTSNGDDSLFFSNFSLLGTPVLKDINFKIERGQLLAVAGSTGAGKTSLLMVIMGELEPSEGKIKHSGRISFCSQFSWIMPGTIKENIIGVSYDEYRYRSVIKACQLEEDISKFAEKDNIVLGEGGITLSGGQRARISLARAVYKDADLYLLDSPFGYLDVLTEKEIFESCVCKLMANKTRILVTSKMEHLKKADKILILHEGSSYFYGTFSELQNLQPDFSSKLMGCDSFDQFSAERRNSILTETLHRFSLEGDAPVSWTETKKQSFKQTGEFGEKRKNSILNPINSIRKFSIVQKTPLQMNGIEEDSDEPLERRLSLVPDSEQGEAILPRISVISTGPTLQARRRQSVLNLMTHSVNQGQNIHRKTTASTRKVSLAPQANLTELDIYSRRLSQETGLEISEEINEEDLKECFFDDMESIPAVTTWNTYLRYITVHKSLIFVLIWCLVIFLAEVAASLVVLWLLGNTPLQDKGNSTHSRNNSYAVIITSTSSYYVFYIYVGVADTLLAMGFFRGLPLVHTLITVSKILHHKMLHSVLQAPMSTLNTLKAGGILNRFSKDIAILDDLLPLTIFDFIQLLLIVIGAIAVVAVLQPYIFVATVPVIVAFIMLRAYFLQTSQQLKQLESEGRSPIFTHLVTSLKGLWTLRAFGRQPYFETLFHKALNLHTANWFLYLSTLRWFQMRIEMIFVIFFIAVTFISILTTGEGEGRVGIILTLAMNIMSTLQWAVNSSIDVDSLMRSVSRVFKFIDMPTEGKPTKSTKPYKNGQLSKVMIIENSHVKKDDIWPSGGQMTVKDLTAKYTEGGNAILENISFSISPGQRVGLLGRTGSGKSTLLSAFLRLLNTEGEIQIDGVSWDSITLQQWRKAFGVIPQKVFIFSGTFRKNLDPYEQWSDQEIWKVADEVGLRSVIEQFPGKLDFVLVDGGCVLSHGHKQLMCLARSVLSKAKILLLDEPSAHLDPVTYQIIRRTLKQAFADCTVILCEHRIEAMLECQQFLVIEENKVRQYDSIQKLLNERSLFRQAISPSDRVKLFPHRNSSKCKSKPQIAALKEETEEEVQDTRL
- assay.remarks: Membrane potential dye, Enteroid Assay A
- Assay type: cell-based
- applied.conditions: Enteroid Assay A; read-out: Ent. A EC50
observed.property: EC50

EC50 reading for Cc1cccc(C)c1-c1cc2nc(n1)NS(=O)(=O)c1cccc(c1)C(=O)N1C[C@@H](CN(C)C[C@@H]1CC(C)C)O2 : < 1000 nM

Reported EC50 of Cc1cccc(C)c1-c1cc2nc(n1)NS(=N)(=O)c1cccc(c1)C(=O)N1CCN(CCC(C)(C)C)CC(C1)O2 (stereo not drawn) [Compound 247] : 1000 to 3000 nM

Field EC50 (entry Cc1cccc(C)c1-c1cc2nc(n1)NS(=O)(=O)c1cccc(c1)C(=O)N1C[C@@H](CNC[C@H]1CC(C)C)O2 ) reads < 1000 nM

The recorded EC50 for entry Cc1ccccc1-c1cc2nc(n1)NS(=O)(=O)c1cccc(c1)C(=O)N1Cc3ccccc3[C@@H](O2)[C@H]1CC(C)C equals < 1000 nM

// sample Cc1cccc(C)c1-c1cc2nc(n1)NS(=O)(=O)c1cccc(c1)C(=O)N1CCNCC(O2)C1CC(C)C (stereo not drawn) [Compound 93] , its EC50 was 1000 to 3000 nM

Could you now look at the following compound, please?
Lab note: measured EC50 of Cc1cccc(C)c1-c1cc2nc(n1)NS(=O)(=O)c1cccc(c1)C(=O)N1C[C@@H](CN(C3CC4(CCCC4)C3)C[C@@H]1CC(C)C)O2 was < 1000 nM

---

Below: a set of entries, each annotated with reported pEC50.
- tgt: CFTR-mediated chloride transport in human intestinal epithelial enteroid cells (Homo sapiens)
- assay.remarks: Membrane potential dye, Enteroid Assay A
- Format: cell-based
- applied.conditions: Enteroid Assay A; read-out: Ent. A EC50
pEC50: −log10 of the molar value.

Please fill in: pEC50 reported for Cc1cccc(C)c1-c1cc2nc(n1)NS(=O)(=O)c1cccc(c1)C(=O)N1CCN(CC3C4(CC4)C34CC4)C[C@H](C1)O2 = > 6.00

pEC50 reported for this molecule Cc1cccc(C)c1-c1cc2nc(n1)NS(=O)(=O)c1cccc(c1)C(=O)N1CCN(C3CC(F)(F)C3)C[C@H](C1)O2 : > 6.00

API: the following record is the query input.
The value of pEC50 measured for the molecule Cc1cccc(C)c1-c1cc2nc(n1)NS(=O)(=O)c1cccc(c1)C(=O)N1CCN(CC3CC(C(=O)O)C3)C[C@H](C1)O2 (stereo partly drawn) turned out to be 4.52 to 5.52

---

- tgt: CFTR-mediated chloride transport in human intestinal epithelial enteroid cells (Homo sapiens)
- assay.remarks: Membrane potential dye, Enteroid Assay A
- Assay type: cell-based
- applied.conditions: Enteroid Assay A; read-out: Ent. A EC50
observed.property: EC50

Before answering, review these 2 worked examples.
Documented EC50 of Cc1cccc(C)c1-c1cc2nc(n1)NS(=O)(=O)c1cccc(c1)C(=O)N1C[C@@H](CN(CCC(C)(C)C)C[C@H]1CC(C)C)O2 : < 1 µM

Lookup result for Cc1cccc(C)c1-c1cc2nc(n1)NS(=O)(=O)c1cccc(c1)C(=O)N1C[C@@H](CNC[C@@H]1C(C)C)O2 ; measured EC50: < 1 µM

***
// Cc1cccc(C)c1-c1cc2nc(n1)NS(=O)(=O)c1cccc(c1)C(=O)N1C[C@@H](CN(C3CC4(CCCC4)C3)[C@@H](CC(C)C)C1)O2 : EC50 value = < 1 µM

The recorded EC50 for entry Cc1cccc(C)c1-c1cc2nc(n1)NS(=O)(=O)c1cccc(c1)C(=O)N1CCCN(Cc3ccccc3)CC(C1)O2 (stereo not drawn) equals < 1 µM

Recorded EC50 (molecule Cc1cccc(C)c1-c1cc2nc(n1)NS(=O)(=O)c1cccc(c1)C(=O)N1CCN(C3CCC(F)CC3)C[C@H](C1)O2 (stereo partly drawn) ): < 1 µM

Lab book: EC50 of Cc1cccc(C)c1-c1cc2nc(n1)NS(=O)(=O)c1cccc(c1)C(=O)N1CCCN(C(=O)OC(C)(C)C)CC(C1)O2 (stereo not drawn) noted as 1 to 3 µM

EC50 reported for this molecule Cc1cccc(C)c1-c1cc2nc(n1)NS(=O)(=O)c1cccc(c1)C(=O)N1CCN(C(=O)C(C)(C)C)C[C@H](C1)O2 : 3 to 30 µM

Summary for this molecule, Cc1cccc(C)c1-c1cc2nc(n1)NS(=O)(=O)c1cccc(c1)C(=O)N1CCN(C3CCC(C)(C)C3)C[C@H](C1)O2 (single isomer, unassigned) [Compound 37] : EC50 is < 1 µM

Looking up Cc1cccc(C)c1-c1cc2nc(n1)NS(=O)(=O)c1cccc(c1)C(=O)N1CCC(CCCO2)C1 (stereo not drawn) , I found its EC50 recorded as 3 to 30 µM

Recorded result, Cc1cccc(C)c1-c1cc2nc(n1)NS(=O)(=O)c1cccc(c1)C(=O)N1C[C@@H](CN(C3CC4(CCCCC4)C3)C[C@@H]1CC(C)C)O2 , EC50: < 1 µM

EC50 in this record for Cc1cccc(C)c1-c1cc2nc(n1)NS(=N)(=O)c1cccc(c1)C(=O)N1CCN(C(=O)OC(C)(C)C)CC(C1)O2 (stereo not drawn) [Compound 240] : 3 to 30 µM

Cc1cccc(C)c1-c1cc2nc(n1)NS(=O)(=O)c1cccc(c1)C(=O)N1Cc3cc(C(C)(C)C)ccc3C(C1)O2 (single isomer, unassigned) yielded EC50 of < 1 µM

Value of EC50 reported for the molecule Cc1cccc(C)c1-c1cc2nc(n1)NS(=O)(=O)c1cccc(c1)C(=O)N1CC3C(CCCN3C)[C@H](C1)O2 (single isomer, unassigned) is 1 to 3 µM

The recorded EC50 for Cc1cccc(C)c1-c1cc2nc(n1)NS(=O)(=O)c1cccc(c1)C(=O)N1CCN(C3CCC4(CC3)CC4)C[C@H](C1)O2 is < 1 µM

What the record says about Cc1cccc(C)c1-c1cc2nc(n1)NS(=O)(=O)c1cccc(c1)C(=O)N1CCN(C(=O)CC34CC5CC(CC(C5)C3)C4)C[C@H](C1)O2 : EC50 is < 1 µM

The reported EC50 of the molecule Cc1cccc(C)c1-c1cc2nc(n1)NS(=O)(=O)c1cccc(c1)C(=O)N1C[C@@H](CN(C3CCC(F)(F)CC3)[C@@H](CC(C)C)C1)O2 was < 1 µM

---

- tgt: CFTR-mediated chloride transport in human intestinal epithelial enteroid cells (Homo sapiens)
- assay.remarks: Membrane potential dye, Enteroid Assay B
- Format: cell-based
- applied.conditions: Enteroid Assay B
observed.property: Ent. B Max Activity (%)

Please fill in: Ent. B Max Activity (%) reported for Cc1cccc(C)c1-c1cc2nc(n1)NS(=O)(=O)c1cccc(c1)C(=O)N1C[C@@H](CCC1CC(C)C)O2 (stereo partly drawn) = +++ (+++ is >600%)

Entry Cc1cccc(C)c1-c1cc2nc(n1)NS(=O)(=O)c1cccc(c1)C(=O)N1CCN(C(=O)CC(C)(C)C)[C@H](CC(C)C)[C@H](C1)O2 ; Ent. B Max Activity (%) = +++ (+++ is >600%)

Memo: Cc1cccc(C)c1-c1cc2nc(n1)NS(=O)(=O)c1cccc(c1)C(=O)N1Cc3cc(C(C)(C)C)ccc3C(CO2)C1C (single isomer, unassigned) [Compound 219] , reported Ent. B Max Activity (%): +++ (+++ is >600%)

Given item Cc1cccc(C)c1-c1cc2nc(n1)NS(=O)(=O)c1cccc(c1)C(=O)N1C[C@H](O2)c2ccccc2[C@@H]1CC(C)C (single isomer, unassigned) [Compound 191] , the value recorded as its Ent. B Max Activity (%) is ++ (++ is 30-60%)

The recorded Ent. B Max Activity (%) for entry Cc1cccc(C)c1-c1cc2nc(n1)NS(=N)(=O)c1cccc(c1)C(=O)N1CCN(CCC(C)(C)C)CC(C1)O2 (stereo not drawn) equals +++ (+++ is >600%)

The recorded Ent. B Max Activity (%) for entry Cc1cccc(C)c1-c1cc2nc(n1)NS(=O)(=O)c1cccc(c1)C(=O)N1CCN(C3CC4(CCCC4)C3)[C@H](CC(C)C)[C@H](C1)O2 equals +++ (+++ is >600%)

Record Cc1cccc(C)c1-c1cc2nc(n1)NS(=N)(=O)c1cccc(c1)C(=O)N1CCN(CCC(C)(C)C)C[C@H](C1)O2 (single isomer, unassigned) , field Ent. B Max Activity (%): +++ (+++ is >600%)

Data point: Cc1cccc(C)c1-c1cc2nc(n1)NS(=O)(=O)c1cccc(c1)C(=O)N1C[C@H](O2)c2ccccc2[C@@H]1CC(C)C (single isomer, unassigned) [Compound 190] ; Ent. B Max Activity (%) = ++ (++ is 30-60%)

So, Cc1cccc(C)c1-c1cc2nc(n1)NS(=O)(=O)c1cccc(c1)C(=O)N1Cc3cc(C(C)(C)C)ccc3C(O2)[C@H]1CC(C)(C)C (stereo in doubt) ? Its Ent. B Max Activity (%) was +++ (+++ is >600%)

The recorded Ent. B Max Activity (%) for entry Cc1cccc(C)c1-c1cc2nc(n1)NS(=O)(=O)c1cccc(c1)C(=O)N1C[C@@H](CCCC1CC(C)C)O2 (stereo partly drawn) equals ++ (++ is 30-60%)

Continue with the compound presented below.
The recorded Ent. B Max Activity (%) for Cc1cccc(C)c1-c1cc2nc(n1)NS(=O)(=O)c1cccc(c1)C(=O)N1Cc3cc(C(C)(C)C)ccc3C(C1)O2 (single isomer, unassigned) is +++ (+++ is >600%)
